Target: nuclear receptor TLX (NR2E1) ligand-binding domain (Homo sapiens (Human))
Sequence (Q9Y466 155-383): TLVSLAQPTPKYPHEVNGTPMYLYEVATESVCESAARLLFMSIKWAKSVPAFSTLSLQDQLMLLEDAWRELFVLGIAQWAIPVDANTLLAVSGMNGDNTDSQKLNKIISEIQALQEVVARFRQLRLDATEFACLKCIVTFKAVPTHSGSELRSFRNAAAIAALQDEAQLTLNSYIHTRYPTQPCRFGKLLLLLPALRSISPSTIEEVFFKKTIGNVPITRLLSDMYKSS
Test: AlphaScreen assay detecting TLX-RIP140 NR box peptide interaction
Assay type: biochemical
Settings: his-tagged TLX LBD, biotinylated RIP140-L6 peptide recruitment
Description: […]
Decision: Efficacy (fold increase) >= 6 fold yields class 1, all other cases yield class 0.

CCCCCCC[C@@H](C)/C=C(/C)C/C(C)=C/[C@H](C)CCCC(=O)O class 1
CCCC/C=C(/C)C/C(C)=C/[C@H](C)CCCCCCCC(=O)O class 1
CCC[C@H](C)/C=C(/C)C/C(C)=C/[C@H](C)CCCCCCCC(=O)O class 0
CCCCCCC[C@H](C)/C=C(/C)C/C(C)=C/[C@H](C)CCCC(=O)O class 0
CCCCCCCCC[C@H](C)/C=C(/C)C/C(C)=C/[C@H](C)CC(=O)O class 1
CCCC/C=C(/C)C/C(C)=C/[C@@H](C)CCCCCCCC(=O)O class 1
CCCCCCC[C@@H](C)/C=C(/C)C/C(C)=C/[C@@H](C)CCCC(=O)O class 0
